- Study Target: HIV-1 JR-CSF Env S199A (HIV-1 JR-CSF) (UniProt P20871)
- Method Notes: cell-based or functional assay
In this section we review reported Fold IC50 increase relative to wild-type values for a set of binders.
Output spec: scalar in fold, unitless text.

Binder | Numeric Value
PGT-130 (antibody, V domains shown) VH: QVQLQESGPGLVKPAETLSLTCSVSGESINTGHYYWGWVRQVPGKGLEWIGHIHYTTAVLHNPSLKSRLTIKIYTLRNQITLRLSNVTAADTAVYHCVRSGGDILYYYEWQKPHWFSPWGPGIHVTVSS VL: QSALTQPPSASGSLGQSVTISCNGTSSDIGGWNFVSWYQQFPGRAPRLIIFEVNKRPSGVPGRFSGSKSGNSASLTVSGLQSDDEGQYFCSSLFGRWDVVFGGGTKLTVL | 0.9
PGT-128 (antibody, V domains shown) VH: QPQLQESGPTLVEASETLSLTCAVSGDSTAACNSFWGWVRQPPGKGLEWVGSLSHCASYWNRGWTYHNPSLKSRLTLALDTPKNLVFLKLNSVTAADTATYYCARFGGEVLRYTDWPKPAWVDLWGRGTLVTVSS VL: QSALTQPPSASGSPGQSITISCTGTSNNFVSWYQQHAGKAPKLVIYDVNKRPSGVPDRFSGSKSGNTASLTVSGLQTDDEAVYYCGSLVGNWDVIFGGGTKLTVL | 1

// recorded Fold IC50 increase relative to wild-type for PGT-126 (antibody, V domains shown) VH: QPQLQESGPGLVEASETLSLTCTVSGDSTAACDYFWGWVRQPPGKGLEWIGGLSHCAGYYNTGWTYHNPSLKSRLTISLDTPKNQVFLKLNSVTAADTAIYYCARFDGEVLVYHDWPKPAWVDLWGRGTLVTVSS VL: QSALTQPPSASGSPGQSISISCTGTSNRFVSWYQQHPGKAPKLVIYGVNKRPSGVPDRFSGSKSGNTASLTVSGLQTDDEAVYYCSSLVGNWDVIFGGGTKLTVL : 0.8

Origin of measurements: patent US20200024330A1
